tested.system: P2X purinoceptor 4 (Homo sapiens) (UniProt Q99571)
Sequence (Q99571 whole entry): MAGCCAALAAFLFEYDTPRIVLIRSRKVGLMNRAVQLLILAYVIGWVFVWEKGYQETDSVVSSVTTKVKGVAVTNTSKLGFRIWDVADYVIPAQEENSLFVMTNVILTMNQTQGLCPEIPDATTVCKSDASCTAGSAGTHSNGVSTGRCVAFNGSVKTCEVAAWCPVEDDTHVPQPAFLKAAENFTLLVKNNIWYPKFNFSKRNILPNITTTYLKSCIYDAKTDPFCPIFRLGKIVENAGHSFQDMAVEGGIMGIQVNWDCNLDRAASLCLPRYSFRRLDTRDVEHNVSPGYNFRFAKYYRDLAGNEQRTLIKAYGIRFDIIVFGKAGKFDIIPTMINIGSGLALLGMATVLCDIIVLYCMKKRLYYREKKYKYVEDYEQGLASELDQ
assay: Antagonist activity at human P2X4 receptor expressed in human 1321N1 cells assessed as inhibition of ATP-induced cytosolic calcium influx at 10 uM preincubated for 30 mins followed by ATP addition by Fluo-4 AM dye-based fluorescence assay
Assay type: cell-based
Please enter satisfied where inhibition is greater than or equal to 50%, and not satisfied where it is lower.

Example entries and their recorded answers appear below.
NC(=O)N1c2ccccc2C2OC2c2ccccc21 (configuration not stated) [CARBAMAZEPINE EPOXIDE] = not satisfied
O=C(OCc1ccccc1)N1c2ccccc2C=Cc2ccccc21 = satisfied
NC1CCC(NC(=O)N2c3ccccc3C=Cc3ccccc32)CC1 (configuration not stated) = not satisfied
NC(=O)N1c2ccccc2CC(=O)c2ccccc21 [OXCARBAZEPINE] = not satisfied
NC(=O)N1c2ccccc2C=C(N)c2ccccc21 = not satisfied

QUERY: Decide: inhibition of CC(C)N(C(=O)N1c2ccccc2C=Cc2ccccc21)C(C)C >= 50%?
RESULT: satisfied

----------
tested.system: P2X purinoceptor 4 (Homo sapiens) (UniProt Q99571)
assay: Antagonist activity at human P2X4 receptor expressed in human 1321N1 cells assessed as inhibition of ATP-induced cytosolic calcium influx at 100 uM preincubated for 30 mins followed by ATP addition by Fluo-4 AM dye-based fluorescence assay
Type: cell-based
recorded.endpoint: inhibition (%)
# output: bare number, implied unit %

CNC(=O)N1c2ccccc2C=Cc2ccccc21 = 47

QUERY: Consider the compound CC(C)N(C(=O)c1cccc2c1Nc1ccccc1C=C2)C(C)C tested on P2X purinoceptor 4 (Homo sapiens) (UniProt Q99571); state its inhibition.
RESULT: 74

QUERY: Consider the compound NC(=O)N1c2ccccc2CCc2ccccc21 tested on P2X purinoceptor 4 (Homo sapiens) (UniProt Q99571); state its inhibition.
RESULT: 35

QUERY: Consider the compound O=C(Nc1ccccc1)N1c2ccccc2C=Cc2ccccc21 tested on P2X purinoceptor 4 (Homo sapiens) (UniProt Q99571); state its inhibition.
RESULT: 49

QUERY: Consider the compound NC(=O)N1c2ccccc2C=Cc2cc(F)ccc21 tested on P2X purinoceptor 4 (Homo sapiens) (UniProt Q99571); state its inhibition.
RESULT: 11

QUERY: Consider the compound CC(C)(C)NC(=O)N1c2ccccc2C=Cc2ccccc21 tested on P2X purinoceptor 4 (Homo sapiens) (UniProt Q99571); state its inhibition.
RESULT: 92

QUERY: Consider the compound CCN(CC)C(=O)N1c2ccccc2C=Cc2ccccc21 tested on P2X purinoceptor 4 (Homo sapiens) (UniProt Q99571); state its inhibition.
RESULT: 95

QUERY: Consider the compound O=C(NC1CCCCC1)N1c2ccccc2C=Cc2ccccc21 tested on P2X purinoceptor 4 (Homo sapiens) (UniProt Q99571); state its inhibition.
RESULT: 100

QUERY: Consider the compound NC(=O)N1c2ccccc2C=Cc2c1ccc1ccccc21 tested on P2X purinoceptor 4 (Homo sapiens) (UniProt Q99571); state its inhibition.
RESULT: 91

QUERY: Consider the compound CCCCNC(=O)N1c2ccccc2C=Cc2ccccc21 tested on P2X purinoceptor 4 (Homo sapiens) (UniProt Q99571); state its inhibition.
RESULT: 49

QUERY: Consider the compound COc1ccc(CCNC(=O)N2c3ccccc3C=Cc3ccccc32)cc1 tested on P2X purinoceptor 4 (Homo sapiens) (UniProt Q99571); state its inhibition.
RESULT: 83

QUERY: Consider the compound CC(=O)N1c2ccccc2C=Cc2ccccc21 tested on P2X purinoceptor 4 (Homo sapiens) (UniProt Q99571); state its inhibition.
RESULT: 39
